measurement_target: T1, SIRPa on human monocytes (human, UniProt P78324 31-504)
T1 construct: also called human monocytes (v1/v1); SIRPa variant 1 on monocytes
experiment: flow cytometry on human monocytes v1/v1 (Fc receptors blocked), PE anti-human Fc; readout % stained monocytes
Experimental: FIG. 3A, B, C, D, E, F, G. Binding analyses of anti-SIRPa antibodies on human monocytes (homozygote for SIRPa variant 1 (v1/v1)). [0478] […] B corresponds to the mean of fluorescence intensity (MFI) of monocytes v1/v1. […] (E, F, G) SIRPa variants binding in the population by anti-h SIRPa antibodies: The capacity of different anti-hSIRPa antibodies to bind SIRPa variants in the 32 volunteers was measured by FACS with a PE-anti mouse IgG. […]

{"columns": ["binder", "EC50, µg/mL"],
 "data": [
  ["HEFLA (humanized 18D5 variant) (antibody, human IgG4 S228P, kappa, V domains shown) VH: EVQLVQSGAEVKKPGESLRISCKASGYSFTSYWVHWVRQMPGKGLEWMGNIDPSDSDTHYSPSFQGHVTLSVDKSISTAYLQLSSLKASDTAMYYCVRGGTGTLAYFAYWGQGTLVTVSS VL: DVVMTQSPLSLPVTLGQPASISCRSSQSLVHSYGNTYLYWYQQRPGQSPRLLIYRVSNRFSGVPDRFSGSGSGTDFTLKISRVEAEDVGVYFCFQGTHVPYTFGGGTKVEIKR", 0.356]
]}
